Biological target: T1, RBM5 RRM1-ZnF1 F202A (Homo sapiens, UniProt P52756 94-210, I107T;F202A)
T1 sequence: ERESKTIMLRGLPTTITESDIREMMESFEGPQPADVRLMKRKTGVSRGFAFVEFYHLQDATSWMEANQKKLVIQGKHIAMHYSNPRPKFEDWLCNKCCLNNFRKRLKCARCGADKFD
Assay: ITC; Zn; 20 mM MES pH 6.5, 100 mM NaCl, 2 mM 2-mercaptoethanol, 25 C; protein 10-30 uM in the cell; one-site fit
Settings: tags: none; N-terminal Met-Gly from the NcoI site (left out)
value-type: Kd (nM)
Reply numerically in nM, unit not repeated.

Could you share which Kd value was measured for UGGCUCUUCUCU (ssRNA) [GGCU_12] ?
379
